src = the EternaBench riboswitch data

# Tested on: MS2 coat protein
# TEST_DETAILS: apparent Kd, MS2 coat protein; higher = weaker binding; RNA-MaP array; FMN 200 µM where present
# EXPERIMENTAL_CONTEXT: designed as: ON switch for flavin mononucleotide; no ligand
Exercise: for every item that follows, state its recorded apparent Kd.
Reply with a number, then the unit it belongs to.

apparent Kd lookup needed for GUCGGAAACGACAAGUAGCAAUCGGAGGAUAUUCAUGAAAACAUGAGGAUCACCCAUGUAAAUUGGGAGAAGGCCGAUUGCUAC , thanks. 91.6 nM

Repeat with GUAGCAUACCGAGGAUAUUCCGGGCAUAAAUAAACAUGAGGAUCACCCAUGUGGCGAAAGCCUAGGGAGAAGGCGGAAUGCUAC 15.2 nM

Repeat with CUAGUUGUCGCAGGAUAUGCCCGCUGGUUGGAGGCAGAAGGGUGACACCAAAUAUUAUACAUGAGGAUCACCCAUGUCGCCAGC 21.4 nM

Repeat with GUGGUCAGACAUGAGGAUCACCCAUGUGGAAUAAAUAAGGAUUAGGAUAUGGAAUAUAGGAUAUACCAGAAGGAAUGGUUGGUG 97.8 nM

Repeat with GUUGCACAAGUUAACAUGAGGAUCACCCAUGUCAAAAGACAUGAGGAUAUGGAGCUGAAGAUUAUCCAGAAGGCAUAAUGCUAA 460 nM

Repeat with AAUGAGACCGCAGGAUAUCCACAUGAGGAUCACCCAUGUUCUCAGACCGGAAGCACGAUCUGCGAGGAGAAGGGCGACCUCAUA 716 nM

Repeat with CGGUCACAUGAGGAUCACCCAUGUACCUACGCGAUGAAGUCGCAGGAUAUCCAUUACUUUACGUAGGAGAAGGGUGACGCUCGC 51.1 nM
